The origin of these recorded values is patent EP4800020A2.

Reported solubility by item:
Experiment: Aqueous solubility of zwitterion-modified hydrophobic peptides in de-ionized water
Type: physicochemical
Settings: concentration giving a clear solution, peptide labeled at the α-amino group with Z3-PFP
Peptide text beside a SMILES is read from it. * marks the point of attachment. X1 = C[N+](C)(CCCC(=O)*)CCCS(=O)(=O)[O-]

Here's what some known entries look like.
CC[C@H](C)[C@H](NC(=O)[C@@H](NC(=O)[C@@H](NC(=O)[C@@H](NC(=O)[C@@H](NC(=O)CCC[N+](C)(C)CCCS(=O)(=O)[O-])[C@@H](C)CC)[C@@H](C)CC)[C@@H](C)CC)[C@@H](C)CC)C(=O)O (X1-IIIII-OH) ... ≥ 100 µM
C[N+](C)(CCCC(=O)N[C@@H](Cc1ccccc1)C(=O)N[C@@H](Cc1ccccc1)C(=O)N[C@@H](Cc1ccccc1)C(=O)N[C@@H](Cc1ccccc1)C(=O)N[C@@H](Cc1ccccc1)C(=O)O)CCCS(=O)(=O)[O-] (X1-FFFFF-OH) ... ≥ 500 µM
C[N+](C)(CCCC(=O)N[C@@H](Cc1ccccc1)C(=O)NCC(=O)NCC(=O)N[C@@H](Cc1ccccc1)C(=O)O)CCCS(=O)(=O)[O-] (X1-FGGF-OH) ... ≥ 3000 µM

Now consider the entry below.
Which solubility value belongs to CC(C)C[C@H](NC(=O)[C@H](CC(C)C)NC(=O)[C@H](CC(C)C)NC(=O)[C@H](CC(C)C)NC(=O)[C@H](CC(C)C)NC(=O)CCC[N+](C)(C)CCCS(=O)(=O)[O-])C(=O)O (X1-LLLLL-OH) ?
≥ 100 µM
